- TEST PROTOCOL: chemical genetic growth profiling, strain panel (AID 1159580);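 further: tested at 20 µM; growth read once vehicle control cultures reached saturation at 30 °C; 1 = growth at the plate median or of vehicle wells; lower values mean less growth of the strain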
- DETAILS: S. cerevisiae deletion strains, growth OD, locus YDR195W, strain ref2
The whole screen tested about 5,500 compounds, of which about 2,000 (36%) were called active. Inconclusive results (about 18%) are left out. No stated cut-off is given here; in the data, active means normalized growth mostly below about 0.91 (no sharp cut-off); inconclusive means no clear call, values can overlap the other calls; inactive means mostly above about 0.92. The list shows a part of the results.
In this exercise, the only acceptable responses are active, inactive

Reference set, count: 3
1) Cc1cc(O)ccc1Cl : active
2) CC(=O)NCc1c(I)c(NC(C)=O)c(I)c(C(=O)O)c1I : inactive
3) Cc1cc(O)cc(C)c1Cl : active

With those in mind, consider the next compound.
Field: outcome | Entry: Cc1cc(O)cc(=O)o1
inactive

* * *

- TEST PROTOCOL: chemical genetic growth profiling, strain panel (AID 1159580);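 further: tested at 20 µM; growth read once vehicle control cultures reached saturation at 30 °C; 1 = growth at the plate median or of vehicle wells; lower values mean less growth of the strain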
- DETAILS: S. cerevisiae deletion strains, growth OD, locus YCL029C, strain bik1, hits give low values
Among all 5,500 compounds or so, about 2,000 (36%) were called active. Not shown: some 18% with an inconclusive outcome. Some of the results follow. Where a SMILES comes first, the peptide text is derived from it. Bridges are numbered along the chain shown (N, C = ends). [ ]: non-standard residue; d: D form. The star is where a group is joined. ξ: configuration not given here. ξDab(CH2SO3H) = NC(CCNCS(=O)(=O)O)C(=O)O; Heptanoyl(6-Me) = CC(C)CCCCC(=O)*; Dab = NCC[CH](N)C(=O)O
REPORTED PROPERTY: normalized growth
Answer with a bare number; do not write a unit.

Solved cases below.
1. CC(=O)/C=C\[C@@H]1[C@@]2(C)CCCC(C)(C)C2CC[C@@]1(C)O (stereo partly specified) : 0.985
2. C[C@@H]1CC[C@H]2[C@@H](C)C(=O)O[C@@H]3O[C@@]4(C)CC[C@@H]1[C@]32OO4 : 0.887
3. CC1C(=O)OC2C1CCC1(C)C=CC(=O)C3(C)OC213 (stereo unspecified) : 1.01
4. CC(=O)NCc1c(I)c(NC(C)=O)c(I)c(C(=O)O)c1I : 0.982
5. CC1(C)CC[C@]2(C)CC[C@]3(C)C(=CCC4[C@@]5(C)CC[C@H](O)C(C)(C)C5CC[C@]43C)C2C1 (stereo partly specified) : 0.999

Query: normalized growth; subject: CNC(=O)O/N=C\C(C)(C)SC
0.987

Which normalized growth reading was recorded for the molecule C#C[C@]1(O)CCC2C3CCC4=CC(=O)CC[C@@H]4C3CC[C@@]21CC (stereo partly specified) ?
0.981

Which normalized growth value belongs to CCC(C)C1NC(=O)C(CCNCS(=O)(=O)O)NC(=O)C(NC(=O)C(CCNCS(=O)(=O)O)NC(=O)C(NC(=O)C(CCNCS(=O)(=O)O)NC(=O)CCCCC(C)C)C(C)O)CCNC(=O)C(C(C)O)NC(=O)C(CCNCS(=O)(=O)O)NC(=O)C(CCNCS(=O)(=O)O)NC(=O)C(C(C)CC)NC1=O (stereo unspecified) ({Heptanoyl(6-Me)}-[ξDab(CH2SO3H)]T[ξDab(CH2SO3H)][Dab][ξDab(CH2SO3H)]II[ξDab(CH2SO3H)][ξDab(CH2SO3H)]T; lactam 4-C; configuration not given here) ?
0.955

Sample NC(Cc1c[nH]c2ccccc12)C(=O)O (stereo unspecified) — what was its normalized growth?
0.98

// returns reported normalized growth for input CCC(C)C(=O)O[C@H]1[C@H](O)C2C(CN3CC(C)CCC3[C@@]2(C)O)C2C[C@]34O[C@]5(O)C(OC(=O)C(C)(O)CC)CC[C@@]3(C)C5C(OC(C)=O)[C@@H](OC(C)=O)C4[C@@]21O (stereo partly specified)
0.988

Requested field: normalized growth. Item: CC(C)=CCCC1(C)C=Cc2c(O)c3c(c(CC=C(C)C)c2O1)OC12C(CC4CC1C(C)(C)OC2(C/C=C(/C)C(=O)O)C4O)C3=O (stereo unspecified)
0.994

Give the measured normalized growth of C[C@@H]1C(=O)O[C@H]2[C@H]1CC[C@@]1(C)C=CC(=O)[C@@]3(C)O[C@@]213 .
1.04

Please report the recorded normalized growth for CC1=CCC2C3(C)C1=CC(=O)OC3CC1C(C)(C)CC(O)C(O)C12C (stereo unspecified) .
1

For the molecule Cc1ccc(S(=O)(=O)NC(=O)NN2CC3CCCC3C2)cc1 (stereo unspecified) , what normalized growth is on record?
1.01

What value of normalized growth has been reported for the following molecule? CC1(C)CC[C@]2(C(=O)O)CC[C@]3(C)C(=CCC4[C@@]5(C)CC[C@@H](O)C(C)(C)C5CC[C@]43C)C2C1 (stereo partly specified)
1.01

What measured normalized growth goes with CCC(C)C(NC)C(=O)O (stereo unspecified) ?
0.982
